// data source = ChEMBL document CHEMBL1201862

# MEASURED_ON: Microphthalmia-associated transcription factor (Homo sapiens, UniProt O75030)
# Sequence (O75030 whole entry): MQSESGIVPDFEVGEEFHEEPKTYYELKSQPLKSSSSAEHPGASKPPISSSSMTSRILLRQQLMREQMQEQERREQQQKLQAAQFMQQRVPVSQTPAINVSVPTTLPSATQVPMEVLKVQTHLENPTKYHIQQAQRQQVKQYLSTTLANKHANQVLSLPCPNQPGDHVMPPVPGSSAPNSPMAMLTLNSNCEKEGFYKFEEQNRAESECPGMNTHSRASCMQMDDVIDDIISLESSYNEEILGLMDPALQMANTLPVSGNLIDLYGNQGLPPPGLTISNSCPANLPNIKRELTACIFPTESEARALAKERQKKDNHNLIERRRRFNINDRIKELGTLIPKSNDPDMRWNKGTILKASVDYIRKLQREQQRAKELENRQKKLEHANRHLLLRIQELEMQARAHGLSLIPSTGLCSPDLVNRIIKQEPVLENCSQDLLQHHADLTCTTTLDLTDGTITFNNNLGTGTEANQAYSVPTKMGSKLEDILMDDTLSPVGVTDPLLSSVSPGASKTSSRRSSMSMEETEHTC
# TEST_DETAILS: TRPM1 promoter luciferase signal decrease, dose response, MITF inhibitor project, cell-based, SK-MEL-5, cherry-picked, set 3 (AID 493073);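 further: SK-MEL-5 melanoma cells with luciferase driven by the MITF target TRPM1 promoter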
# Format: functional
The source made the active and inactive calls. How the calls were made is not given here.

MOLECULE: CCC(C)(C)c1ccc(OCCCC[n+]2ccccc2)c(C(C)(C)CC)c1
AC50: 4.35 µM (active)
//
MOLECULE: C/C(=N/NC(=O)C(O)(c1ccccc1)c1ccccc1)c1ccc([N+](=O)[O-])o1
AC50: 9.84 µM (active)
//
MOLECULE: Cn1nnnc1Sc1ncnc2scc(-c3ccsc3)c12
AC50: 7.95 µM (active)
//
MOLECULE: C=CC[n+]1c(-c2ccc(C)cc2)csc1Nc1ccc(NC(C)=O)cc1
AC50: 1.57 µM (active)
//
MOLECULE: CCCCn1c(=O)[nH]c(=O)c2c1nc(Cn1ncc(Cl)c(Cl)c1=O)n2CCC
AC50: 8.12 µM (active)
//
MOLECULE: NCCCNc1nc(N)c([N+](=O)[O-])c(NC2CCCCC2)n1
AC50: 6.36 µM (active)
//
MOLECULE: CC[n+]1c(-c2ccccc2)c2cc(N)ccc2c2ccc(N)cc21 [HOMIDIUM BROMIDE]
AC50: 2.42 µM (active)
//
MOLECULE: Cc1ccc(NC(=O)Cn2ncc(Cl)c(Cl)c2=O)cc1S(=O)(=O)N1CCCCC1
AC50: 13.7 µM (active)
//
MOLECULE: Cc1nn(-c2ccccc2Cl)c(Cl)c1/C=N/Nc1cccc(C(=O)O)c1
AC50: 5.5 µM (active)
